Source: ChEMBL document CHEMBL3860064

Record form. Attribute: IC50. Fill in for each entry.
# studyTarget: UniProtKB P00489
# Sequence (P00489 whole entry): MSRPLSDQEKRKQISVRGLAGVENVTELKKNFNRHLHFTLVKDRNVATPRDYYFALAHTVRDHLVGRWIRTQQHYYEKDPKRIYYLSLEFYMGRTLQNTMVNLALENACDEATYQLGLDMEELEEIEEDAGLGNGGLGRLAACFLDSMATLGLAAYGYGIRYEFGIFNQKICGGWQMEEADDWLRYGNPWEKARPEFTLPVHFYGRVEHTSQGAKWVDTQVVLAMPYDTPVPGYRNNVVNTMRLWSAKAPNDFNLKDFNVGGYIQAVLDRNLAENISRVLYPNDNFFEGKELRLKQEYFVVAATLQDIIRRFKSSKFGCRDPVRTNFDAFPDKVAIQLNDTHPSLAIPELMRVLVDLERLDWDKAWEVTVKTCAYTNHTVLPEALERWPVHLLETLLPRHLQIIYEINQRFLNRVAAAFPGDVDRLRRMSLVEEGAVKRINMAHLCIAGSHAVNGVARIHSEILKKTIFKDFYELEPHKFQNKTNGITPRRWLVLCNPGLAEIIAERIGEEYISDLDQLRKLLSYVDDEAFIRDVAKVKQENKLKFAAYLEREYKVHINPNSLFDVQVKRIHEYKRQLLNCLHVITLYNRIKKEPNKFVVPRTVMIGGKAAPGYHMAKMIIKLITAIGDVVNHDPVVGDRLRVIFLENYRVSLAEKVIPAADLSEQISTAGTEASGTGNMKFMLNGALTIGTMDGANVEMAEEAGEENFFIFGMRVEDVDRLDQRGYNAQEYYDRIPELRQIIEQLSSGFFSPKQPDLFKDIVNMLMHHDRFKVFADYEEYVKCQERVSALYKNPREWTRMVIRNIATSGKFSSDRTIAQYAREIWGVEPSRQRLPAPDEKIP
# testDetails: Inhibition of rabbit skeletal muscle glycogen phosphorylase b assessed as reduction in inorganic phosphate release using glucose-1-phosphate as substrate at pH 6.8
Response body: numeric value in µM, unit text excluded.

API: value(readout= IC50, system= UniProtKB P00489, query= Cc1nn(-c2ccc([N+](=O)[O-])cc2)c(C)c1/N=N/c1ccc(-c2nc3ccccc3[nH]2)cc1 )
532

O=S(=O)(Nc1ccc(-c2nc3ccccc3[nH]2)cc1)c1ccccc1 , same question.
324

Repeat with O=[N+]([O-])c1ccccc1S(=O)(=O)Nc1ccc(-c2nc3ccccc3[nH]2)cc1
358

What about O=C1N=C(Nc2ccc(-c3nc4ccccc4[nH]3)cc2)CNN1 ?
437

---

# studyTarget: UniProt P06737
# Sequence (P06737 whole entry): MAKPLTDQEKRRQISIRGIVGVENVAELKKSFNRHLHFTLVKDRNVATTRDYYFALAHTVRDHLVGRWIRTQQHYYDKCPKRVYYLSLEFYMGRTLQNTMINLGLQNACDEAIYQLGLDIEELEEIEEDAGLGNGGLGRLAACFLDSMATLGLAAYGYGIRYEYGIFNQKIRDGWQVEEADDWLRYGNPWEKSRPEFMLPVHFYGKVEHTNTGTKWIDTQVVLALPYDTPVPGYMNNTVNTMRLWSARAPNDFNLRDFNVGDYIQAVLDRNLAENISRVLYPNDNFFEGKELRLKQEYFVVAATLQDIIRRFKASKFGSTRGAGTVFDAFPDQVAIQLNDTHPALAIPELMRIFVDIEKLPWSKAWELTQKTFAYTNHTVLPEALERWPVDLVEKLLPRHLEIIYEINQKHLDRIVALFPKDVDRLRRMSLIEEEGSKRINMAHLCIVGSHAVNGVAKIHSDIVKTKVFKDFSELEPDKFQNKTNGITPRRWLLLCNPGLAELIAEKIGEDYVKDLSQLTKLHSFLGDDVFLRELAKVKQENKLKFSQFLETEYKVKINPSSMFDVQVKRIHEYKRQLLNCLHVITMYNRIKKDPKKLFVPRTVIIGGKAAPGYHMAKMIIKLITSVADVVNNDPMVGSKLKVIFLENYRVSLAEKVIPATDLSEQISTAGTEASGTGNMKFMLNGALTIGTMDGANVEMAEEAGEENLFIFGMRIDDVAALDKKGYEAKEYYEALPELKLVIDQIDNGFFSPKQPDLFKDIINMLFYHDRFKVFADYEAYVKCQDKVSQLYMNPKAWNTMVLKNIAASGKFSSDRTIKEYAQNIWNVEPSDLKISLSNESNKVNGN
# testDetails: Inhibition of human recombinant liver glycogen phosphorylase A expressed in baculovirus infected Sf9 insect cells assessed as release of phosphate from glucose-1- phosphate in presence of 7.5 mM glucose by malachite green based assay
quantityName: pIC50
For clarity, pIC50 is expressed as the negative log10 of concentration in mol/L.

Can you look up the measured pIC50 of CN(C)C(=O)[C@H](O)[C@H](Cc1ccccc1)NC(=O)c1cc2cc(Cl)ccc2[nH]1 for me?
7.09

Queued: O=C(NC(=O)c1cc(F)c(F)cc1Cl)Nc1ccsc1-c1n[nH]c(=O)o1
4.52

// repeat for O=C(N[C@@H](Cc1ccc(F)cc1)C(=O)C(=O)N1CCC(O)CC1)c1cc2cc(Cl)ccc2[nH]1 and report
6.70
